Biological target: T1, rat-derived WARS1 recombinant protein (rat, UniProt Q6P7B0 1-481, limits assumed)
T1 construct: Recombinant, His-tagged (detected with anti-His tag antibody); construct not described; also called rat WARS1
T1 sequence (looked up): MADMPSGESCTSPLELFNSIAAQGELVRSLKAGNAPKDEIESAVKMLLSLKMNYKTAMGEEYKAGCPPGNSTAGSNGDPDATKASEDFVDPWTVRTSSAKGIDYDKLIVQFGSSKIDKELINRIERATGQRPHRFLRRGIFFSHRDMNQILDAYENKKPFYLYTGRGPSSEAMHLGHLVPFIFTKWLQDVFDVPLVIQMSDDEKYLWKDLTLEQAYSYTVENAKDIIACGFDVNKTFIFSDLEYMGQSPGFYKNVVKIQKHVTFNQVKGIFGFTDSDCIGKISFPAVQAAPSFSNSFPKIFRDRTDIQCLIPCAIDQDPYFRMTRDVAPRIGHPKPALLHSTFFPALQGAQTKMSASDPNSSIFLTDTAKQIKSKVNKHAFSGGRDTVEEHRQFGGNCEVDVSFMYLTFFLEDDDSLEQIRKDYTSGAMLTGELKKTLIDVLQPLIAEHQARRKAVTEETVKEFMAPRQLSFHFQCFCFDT
Assay: western blot; recombinant protein

binder	binding result
S53L (antibody, V domains shown, L-CDR2 variant of GKB101; also called S53L antibody) VH: EVQLLESGGGLVQPGGSLRLSCAASGFTFSSYDMSWVRQAPGKGLEWVSAISSGGSSIYYADSVKGRFTISRDNSKNTLYLQMNSLRAEDTAVYYCARDVAWDMLGDFDYWGQGTLVTVSS VL: QSVLTQPPSASGTPGQRVTISCTGSSSNIGSNYVYWYQQLPGTAPKLLIYANLHRPSGVPDRFSGSKSGTSASLAISGLRSEDEADYYCGAWDDSLSAYVFGGGTKLTVLT	binds
S53T (antibody, V domains shown, L-CDR2 variant of GKB101; also called S53T antibody) VH: EVQLLESGGGLVQPGGSLRLSCAASGFTFSSYDMSWVRQAPGKGLEWVSAISSGGSSIYYADSVKGRFTISRDNSKNTLYLQMNSLRAEDTAVYYCARDVAWDMLGDFDYWGQGTLVTVSS VL: QSVLTQPPSASGTPGQRVTISCTGSSSNIGSNYVYWYQQLPGTAPKLLIYANTHRPSGVPDRFSGSKSGTSASLAISGLRSEDEADYYCGAWDDSLSAYVFGGGTKLTVLT	binds
GKB101 (antibody, V domains shown, Parent antibody; expressed in Expi293 cells; also called GKB101 antibody; anti-WARS1 antibody) VH: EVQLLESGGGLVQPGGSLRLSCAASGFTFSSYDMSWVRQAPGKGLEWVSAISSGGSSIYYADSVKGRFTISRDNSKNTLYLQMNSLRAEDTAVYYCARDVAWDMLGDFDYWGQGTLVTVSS VL: QSVLTQPPSASGTPGQRVTISCTGSSSNIGSNYVYWYQQLPGTAPKLLIYANSHRPSGVPDRFSGSKSGTSASLAISGLRSEDEADYYCGAWDDSLSAYVFGGGTKLTVLT	binds
